All figures here come from patent US20200399712A1.

Tested on: HPV-16
Test: qPCR sensitivity against HPV-HNSCC tumor samples diluted among 10 ng normal human DNA
Conditions: tumor DNA dilution, fraction of 32 samples
parameter: Sensitivity, 1 cell
Give your answer as a number; write no unit.

Would you please look over these solved cases?
>  <molecule>
E7: previously designed (historical) HPV-16 E7 primers and Taqman probe, SEQ ID NO: 10-12; part of CLIA test (nucleic acid, Taqman probe, labels not given here, part of CLIA test) DNA 1: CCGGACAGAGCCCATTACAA DNA 2: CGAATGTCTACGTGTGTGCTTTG DNA 3: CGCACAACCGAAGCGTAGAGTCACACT

>  <parameter>
Sensitivity, 1 cell

>  <valueObserved>
0.094

$$$$
>  <molecule>
E6: previously designed (historical) HPV-16 E6 primers and Taqman probe, SEQ ID NO: 7-9, positive control (nucleic acid, Taqman probe, labels not given here) DNA 1: TCAGGACCCACAGGAGCG DNA 2: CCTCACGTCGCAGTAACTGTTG DNA 3: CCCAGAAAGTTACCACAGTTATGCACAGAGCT

>  <parameter>
Sensitivity, 1 cell

>  <valueObserved>
0.125

$$$$

Query: Let me know recorded Sensitivity, 1 cell for BR E1-6: HPV-16 E1 region primer/probe set, SEQ ID NO: 43-45 (nucleic acid, chemistry not given here) DNA 1: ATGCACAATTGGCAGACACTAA DNA 2: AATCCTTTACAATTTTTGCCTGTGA DNA 3: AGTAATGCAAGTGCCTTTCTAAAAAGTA , thanks.
Response: 0.156

Query: Assign Sensitivity, 1 cell to the following record: HR E5L2-4: primer/probe set for junction between E5 and L2, SEQ ID NO: 55-57 (same as SEQ ID NO: 4-6) (nucleic acid, chemistry not given here) DNA 1: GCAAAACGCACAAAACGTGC DNA 2: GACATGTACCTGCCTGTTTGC DNA 3: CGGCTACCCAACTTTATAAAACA
Response: 0.156

Query: # return recorded Sensitivity, 1 cell for entry BR E6-1: HPV-16 E6 region (172-373 bp) primer/probe set, SEQ ID NO: 58-60 (nucleic acid, chemistry not given here) DNA 1: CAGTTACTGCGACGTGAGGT DNA 2: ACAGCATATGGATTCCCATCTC DNA 3: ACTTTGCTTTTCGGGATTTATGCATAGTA
Response: 0.031

Query: Look up and state reported Sensitivity, 1 cell for BR E1-4: HPV-16 E1 region primer/probe set, SEQ ID NO: 37-39 (nucleic acid, chemistry not given here) DNA 1: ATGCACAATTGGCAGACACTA DNA 2: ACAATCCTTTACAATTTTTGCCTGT DNA 3: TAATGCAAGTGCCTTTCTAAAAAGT
Response: 0.219
